Each entry below carries its recorded MIC.
Test system: Streptococcus iniae
Experiment: Antibacterial activity against Streptococcus iniae after 24 hrs by broth microdilution method
Type: functional

Please review the following examples before continuing.
compound=CN(C)[C@@H]1C(O)=C(C(N)=O)C(=O)[C@@]2(O)C(=O)C3=C(O)c4c(O)cccc4[C@@](C)(O)[C@H]3[C@H](O)[C@@H]12 measured_property=MIC endpoint_result="2.5 µg/mL"
compound=CCCCCCCCC(=O)c1cccc2c1C=C(CCCCCCC)[C@@]1(OCc3c(O)cccc31)O2 measured_property=MIC endpoint_result="> 40 µg/mL"
compound="CCCCCCCCC(=O)c1cccc2c1C=C(CCCCCCC)C1(OCc3c(O)cccc31)O2 (racemic)" measured_property=MIC endpoint_result="> 40 µg/mL"

Now look at this one.
(Q) Dear colleague, I am looking for the recorded MIC of the following compound: CCCCCCCCC(=O)c1cccc2c1C=C(CCCCCCC)[C@]1(OCc3c(O)cccc31)O2
(A) > 40 µg/mL

Cited source: ChEMBL document CHEMBL3739288
